In this section, each of the binders is paired with its reported Kd.
molecular target: T1, human programmed cell death protein 1 (hPD-1) C93S (aa 24-167) (Homo sapiens, UniProt Q15116, C93S); assay: SPR; Carterra LSA; Fab from the ammonium sulfate precipitate of the culture supernatant immobilised on a NiHC200M chip; hPD-1 (1-1024 nM) or mPD-1-Fc (4-1024 nM) as analyte, fourfold dilution series, no regeneration; HBS-EP pH 7.4, 25 °C; medians over the spots of a construct, KD = koff/kon; details: one partner purified
T1 construct: made as a fusion with a TEV site and human Fc; the Fc was cut off with TEV protease; source: Expi293F, purified (Protein A, TEV cleavage of Fc, SEC; monomer fractions); not shown: Fc (human), C-terminal, cleaved
T1 sequence (Q15116 24-167 C93S): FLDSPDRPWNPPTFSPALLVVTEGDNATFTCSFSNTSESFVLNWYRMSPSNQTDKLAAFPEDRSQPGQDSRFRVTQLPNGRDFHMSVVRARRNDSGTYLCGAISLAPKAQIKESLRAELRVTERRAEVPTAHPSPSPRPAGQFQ

Some solved cases for reference:
toripalimab Fab H.G66Y (Fab, V domains shown, heavy chain of Sm3 with this change; numbers count from the chain's first residue; as the light chain of Sm3; source: Brevibacillus, culture supernatant (ammonium sulfate precipitate); not shown: 6xHis, C-terminal, kept; 6xHN, C-terminal, kept) VH: QGQLVQSGAEVKKPGASVKVSCKASGYTFTDYEMHWVRQAPIHGLEWIGVIESETGGTAYNQKFKYRVTITADKSTSTAYMELSSLRSEDTAVYYCAREGITTVATTYYWYFDVWGQGTTVTVSS VL: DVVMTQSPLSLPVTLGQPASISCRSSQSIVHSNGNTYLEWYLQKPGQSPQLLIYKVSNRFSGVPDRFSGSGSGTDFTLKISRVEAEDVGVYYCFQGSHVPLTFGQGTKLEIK: < 850 pM
toripalimab Fab L.T102Y (Fab, V domains shown, as the heavy chain of Sm3; light chain of Sm3 with this change; numbers count from the chain's first residue; source: Brevibacillus, culture supernatant (ammonium sulfate precipitate); not shown: 6xHis, C-terminal, kept; 6xHN, C-terminal, kept) VH: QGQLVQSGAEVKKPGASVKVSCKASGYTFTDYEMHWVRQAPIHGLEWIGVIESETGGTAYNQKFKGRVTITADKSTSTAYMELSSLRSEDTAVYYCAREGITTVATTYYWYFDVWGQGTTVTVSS VL: DVVMTQSPLSLPVTLGQPASISCRSSQSIVHSNGNTYLEWYLQKPGQSPQLLIYKVSNRFSGVPDRFSGSGSGTDFTLKISRVEAEDVGVYYCFQGSHVPLYFGQGTKLEIK: < 441 pM

For the next question, use this binder.
Incoming: Fill blank: measured Kd of the binder toripalimab Fab L.G34Y (Fab, V domains shown, as the heavy chain of Sm3; light chain of Sm3 with this change; numbers count from the chain's first residue; source: Brevibacillus, culture supernatant (ammonium sulfate precipitate); not shown: 6xHis, C-terminal, kept; 6xHN, C-terminal, kept) VH: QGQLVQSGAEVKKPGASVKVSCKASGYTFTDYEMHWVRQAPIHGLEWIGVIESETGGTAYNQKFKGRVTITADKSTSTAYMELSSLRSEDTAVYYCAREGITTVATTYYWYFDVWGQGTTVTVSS VL: DVVMTQSPLSLPVTLGQPASISCRSSQSIVHSNYNTYLEWYLQKPGQSPQLLIYKVSNRFSGVPDRFSGSGSGTDFTLKISRVEAEDVGVYYCFQGSHVPLTFGQGTKLEIK is ____.
Outgoing: < 445 pM
